- System: ATP;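 also: ATP exposure 15 min at 22 °C before imaging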
- measurement_protocol: switch fluorescence ratio, 500 uM ATP over buffer (Cy3 cluster intensity, sum of 5 cycles each) (fold (ratio)); higher = stronger signal-on switching upon ATP binding; sequences stand for … in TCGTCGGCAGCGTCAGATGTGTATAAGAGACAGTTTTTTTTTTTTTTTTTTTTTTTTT…TC
- measurement_context: aptamer strand: ATP DNA aptamer (quencher-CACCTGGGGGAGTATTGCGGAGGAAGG + anchor), 100 nM annealed; ATP concentration: 500 uM
quantity: switch fluorescence ratio

| entry_sequence | switch fluorescence ratio |
| --- | --- |
| TGGGCAGGGA | 0.982 |
| GGGTTGTGTT | 0.978 |
| ATTTTAGGCC | 1.1 |

Lookup: Fill blank: measured switch fluorescence ratio of the sequence CGGCTTTTGG is ____.
Found: 0.962

Lookup: Which switch fluorescence ratio is reported for this sequence? TTTGCATGAA
Found: 0.992

Lookup: Tell me the measured switch fluorescence ratio of TTATAATCGT , please.
Found: 0.988

Lookup: Fill blank: measured switch fluorescence ratio of the sequence TGCATTTAGT is ____.
Found: 1.01

Lookup: Reported switch fluorescence ratio, sequence ATTTGGTAGG : ____
Found: 1

Lookup: What does the data say about its switch fluorescence ratio? Entry: TGCATGGGCT
Found: 1.05

Lookup: Sample CTTTGTAGT — what was its switch fluorescence ratio?
Found: 1.01

Lookup: Quick one: switch fluorescence ratio for CAGGGGTATC ?
Found: 1.01

Lookup: Report switch fluorescence ratio for ACGTCTTAGT please.
Found: 1

Lookup: Need switch fluorescence ratio, item GCTGGTTTGT
Found: 0.989
